testMethodNotes: Thermodynamic solubility in various biorelevant media
Type: physicochemical
measurementContext: phosphate buffered saline, 25 °C, pH 6.8, aqueous buffer, thermodynamic from solid, PBS, pH 6.8; crystalline solid
propertyLabel: solubility at 25 h (µg/mL)
Express it in µg/mL; write the number only.

Data request: Param item = CCOc1cccnc1Oc1cncc(-c2ncc(C(=O)N[C@H]3CCOC3)cn2)c1 [WO2018033832 Ex. 1, Form 1] ; retrieve measured solubility at 25 h.
Data returned: 43

====

# reported microsomal CLint at 1 μM; entries follow
testMethodNotes: Intrinsic clearance in human liver microsomes
Format: in vitro ADME
measurementContext: human, pooled human liver microsomes (50 donors), pH 7.4, human liver microsome assay; 1 μM test compound, 0.806 mg/mL protein, NADPH, pH 7.4, 37° C.; mean +/− STD Dev; read-out: CLint (μL/min/mg) (+/− STD Dev)
Express it in µL/min/mg; write the number only.

Study these solved cases before continuing.
- molecule: "CCOc1cccnc1Oc1cncc(-c2ncc(C(=O)N[C@H]3CCOC3)cn2)c1"
  unitOfMeasurement: "µL/min/mg"
  microsomal CLint at 1 μM: 11
- molecule: "CCOc1cccnc1Oc1cncc(-c2ncc(C(=O)NC3(C)CCS(=O)(=O)C3)cn2)c1 (stereo not drawn)"
  unitOfMeasurement: "µL/min/mg"
  microsomal CLint at 1 μM: 30

Data request: Param item = CCOc1cccnc1Oc1cncc(-c2ncc(C(=O)NC3(CO)CCOC3)cn2)c1 (single isomer, unassigned) ; retrieve measured microsomal CLint at 1 μM.
Data returned: 13

Data request: Param item = `CCOc1cccnc1Oc1cncc(-c2ncc(C(=O)N[C@@H]3CCOC3)cn2)c1` ; retrieve measured microsomal CLint at 1 μM.
Data returned: 17

====

targetOfAssay: DGAT2 in human hepatocytes (Homo sapiens (Human))
Sequence (Q96PD7 whole entry): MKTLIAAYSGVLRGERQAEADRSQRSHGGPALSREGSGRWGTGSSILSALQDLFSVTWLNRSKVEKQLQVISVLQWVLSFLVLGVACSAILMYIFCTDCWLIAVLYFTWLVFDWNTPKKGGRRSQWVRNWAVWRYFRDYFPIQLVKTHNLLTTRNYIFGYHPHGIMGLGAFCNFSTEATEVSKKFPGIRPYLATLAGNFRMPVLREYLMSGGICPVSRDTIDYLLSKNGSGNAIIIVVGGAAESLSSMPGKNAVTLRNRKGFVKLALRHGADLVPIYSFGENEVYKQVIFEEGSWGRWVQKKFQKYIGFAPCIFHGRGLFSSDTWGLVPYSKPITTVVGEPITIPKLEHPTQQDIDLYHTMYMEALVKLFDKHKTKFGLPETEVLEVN
testMethodNotes: Determination of IC50 values for DGAT2 inhibitors in human hepatocytes
measurementContext: cryopreserved human hepatocytes, DGAT1 inhibitor present; geometric mean
Experimental: For evaluation of the effects of DGAT2 inhibitors in a cell-based setting, cryopreserved human hepatocytes (Lot DOO, Celsis, Baltimore, Md.) were thawed and plated onto type I collagen-coated plates according to the manufacturer's instructions. […] The half maximal inhibitory concentrations (IC50 values) were determined by nonlinear regression analysis of the % inhibition dose response curve using GraphPad Prism (GraphPad Software, Inc., La Jolla, Calif.). […]
Where a name gives a salt, the structure may show the parent alone.
propertyLabel: IC50 (nM)
Express it in nM; write the number only.

Data request: Give the reported IC50 for CCOc1cccnc1Oc1cncc(-c2ncc(C(=O)N[C@@H]3CNCC[C@@H]3F)cn2)c1 [Example 3, bis(trifluoroacetate) Salt] (system: DGAT2 in human hepatocytes (Homo sapiens (Human))).
Data returned: 23

====

# reported hepatocyte CLint at 1 μM; entries follow
testMethodNotes: High throughput determination of intrinsic clearance in human hepatocytes
Assay type: in vitro ADME
measurementContext: human, pooled cryopreserved human hepatocytes (10 donors), high throughput human hepatocyte assay; 0.5 million cells/mL, 1 μM test compound, 37° C.; mean +/− Std Dev; read-out: CLint (μL/min/10^6 cells) (+/− Std Dev)
Where a name gives a salt, the structure may show the parent alone.

Study these solved cases before continuing.
- molecule: "CCOc1cccnc1Oc1cncc(-c2ncc(C(=O)NC3(CO)CCOC3)cn2)c1 (single isomer, unassigned) [WO2018033832 Ex. 6a]"
  hepatocyte CLint at 1 μM: "< 3.8 µL/min/1e6 cells"
- molecule: "CCOc1cccnc1Oc1cncc(-c2ncc(C(=O)N[C@H]3CCOC3)cn2)c1 [WO2018033832 Ex. 1]"
  hepatocyte CLint at 1 μM: "< 3.8 µL/min/1e6 cells"

Data request: Param item = CCOc1cc(F)cnc1Oc1cncc(-c2ncc(C(=O)N[C@@H]3CNCC[C@@H]3F)cn2)c1 [Example 1, bis(trifluoroacetate) Salt] ; retrieve measured hepatocyte CLint at 1 μM.
Data returned: < 2.7 µL/min/1e6 cells

Data request: Param item = CCOc1cccnc1Oc1cncc(-c2ncc(C(=O)N[C@@H]3CNCC[C@@H]3F)cn2)c1 [Example 3, bis(trifluoroacetate) Salt] ; retrieve measured hepatocyte CLint at 1 μM.
Data returned: < 1.9 µL/min/1e6 cells

====

# reported microsomal CLint at 1 μM; entries follow
testMethodNotes: Intrinsic clearance in human liver microsomes
Format: in vitro ADME
measurementContext: human, pooled human liver microsomes (50 donors), pH 7.4, human liver microsome assay; 1 μM test compound, 0.806 mg/mL protein, NADPH, pH 7.4, 37° C.; mean +/− STD Dev; read-out: CLint (μL/min/mg) (+/− STD Dev)
Structures can show the parent of a compound that is named as a salt.

- compound: "CCOc1cccnc1Oc1cncc(-c2ncc(C(=O)NC3CCS(=O)(=O)C3)cn2)c1 (centres unmarked) [WO2018033832 Ex. 3.3]"
  microsomal CLint at 1 μM: "< 8 µL/min/mg"
- compound: "CCOc1cccnc1Oc1cncc(-c2ncc(C(=O)N[C@@H]3CNCC[C@@H]3F)cn2)c1 [Example 3, bis(trifluoroacetate) Salt]"
  microsomal CLint at 1 μM: "< 7 µL/min/mg"
- compound: "CCOc1cccnc1Oc1cncc(-c2ncc(C(=O)N[C@H]3CCC(C(F)(F)F)NC3)cn2)c1 (mixture of isomers) [Example 8]"
  microsomal CLint at 1 μM: "< 14 µL/min/mg"
- compound: "CCOc1cc(F)cnc1Oc1cncc(-c2ncc(C(=O)N[C@H]3CCOC3)cn2)c1 [WO2018033832 Ex. 8]"
  microsomal CLint at 1 μM: "< 9.6 µL/min/mg"

Here's the next entry for you.
Data request: Param item = CCOc1cc(F)cnc1Oc1cncc(-c2ncc(C(=O)N[C@@H]3CNCC[C@@H]3F)cn2)c1 [Example 1, bis(trifluoroacetate) Salt] ; retrieve measured microsomal CLint at 1 μM.
Data returned: < 7 µL/min/mg

From: patent US11471458B2
